# Test system: DU-145 prostate
# testDetails: NCI tumour cell line growth inhibition, 48 h
propertyLabel: TGI

Worked cases, answers included:
CC[C@H](NC(=O)OC(C)(C)C)C(=O)NCP(=O)(OCc1ccc([N+](=O)[O-])cc1)OCc1ccc([N+](=O)[O-])cc1; > 100 µM
CC1SC(c2ccc(Cl)cc2Cl)N(NC(=O)C(O)c2ccccc2)C1=O (stereo not drawn); > 100 µM

// switching to the query molecule
DU-145 prostate data for `Nc1c(N2CCOCC2)c(=O)nc2[nH]/c(=C\c3ccccc3O)c(=O)n12` ; its TGI: > 100 µM

---

# Tested on: HCT-116 colon
# testDetails: NCI tumour cell line growth inhibition, 48 h
propertyLabel: TGI

Worked cases, answers included:
Clc1ccc(/C(=C/c2ccccc2)Cn2ccnc2)cc1; > 100 µM
O=P(O)(O)OCC1OC(n2cnc3c(NCc4ccccc4)ncnc32)C(O)C1O (stereo not drawn); > 32.1 µM
Cc1cc(-c2cc(C(C)(C)C)c(O)c(C(C)(C)C)c2)c(C)cc1-c1cc(C(C)(C)C)c(O)c(C(C)(C)C)c1; > 100 µM

TGI in this record for `CC[C@H](NC(=O)OC(C)(C)C)C(=O)NCP(=O)(OCc1ccc([N+](=O)[O-])cc1)OCc1ccc([N+](=O)[O-])cc1` : > 100 µM

TGI in this record for `CN(C)CCCNC(=O)N/N=C/c1ccccc1` : > 100 µM

TGI in this record for `CC1=NN2C(=N)/C(=C/c3ccc(F)cc3)C(=O)N=C2S1` : > 100 µM

TGI in this record for `CC(=O)Oc1ccc2c(c1)C(=O)c1nc(C)c(C)nc1C2=O` : > 100 µM

TGI in this record for `C[C@]12C[C@H](O)[C@H]3[C@@H](CCC4=CC(=O)CC[C@@]43C)[C@@H]1CC[C@@H]2c1csc(-c2ccccc2)n1` : > 100 µM

TGI in this record for `CO[P@@]1(=O)O[C@@H](c2ccccc2)[C@H](O)[C@]1(O)c1ccccc1` : > 100 µM

---

# Test system: HOP-92 NSCLC
# testDetails: NCI tumour cell line growth inhibition, 48 h; in the data active = GI50 below about 0.43 µM; inactive = the rest
Your response should consist of one outcome taken from active, inactive

CS(=O)(=O)N(c1cc(-c2ccc3ncnc(Nc4ccc(F)c(Cl)c4)c3c2)cnc1Cl)S(C)(=O)=O; active

Prompt: Each compound tested received a call. Report the one for `CCCCn1c(=O)c(/C=C/C(=O)/C=C/c2cc3ccccc3n(CCCC)c2=O)cc2ccccc21` .
Completion: inactive

Prompt: Each compound tested received a call. Report the one for `CCn1c2ccccc2c2cc(C(=O)c3ccc(C)c4ccccc34)ccc21` .
Completion: active

Prompt: Each compound tested received a call. Report the one for `CCC[CH2][Sn]1([CH2]CCC)[S]CC[N]1S(=O)(=O)c1ccc(C)cc1` .
Completion: inactive

Prompt: Each compound tested received a call. Report the one for `Nc1cccc2c1C(=O)c1cccc(NC(=O)c3ccccc3)c1C2=O` .
Completion: active

Prompt: Each compound tested received a call. Report the one for CC1SC(c2ccc(Cl)cc2Cl)N(NC(=O)C(O)c2ccccc2)C1=O (stereo not given) .
Completion: inactive

Prompt: Each compound tested received a call. Report the one for CC1(C)CCC[C@]2(C)c3ccccc3C(=O)CC12 (stereo not given in full) .
Completion: inactive

Prompt: Each compound tested received a call. Report the one for `C[N+](C)=c1ccc2nc3c(cc(NCCCNc4cc5oc6cc(=[N+](C)C)ccc-6nc5c5ccccc45)c4ccccc43)oc-2c1` .
Completion: inactive

Prompt: Each compound tested received a call. Report the one for O=C(/C=C/C12c3ccccc3C(c3ccccc31)C1C(=O)NC(=O)C12)c1ccccc1 (stereo not given) .
Completion: inactive

Prompt: Each compound tested received a call. Report the one for `COc1cc(NCCCCCN=C(N)NC(N)=NC(C)C)c2ncccc2c1` .
Completion: inactive
